Data origin, for the record: patent EP1167342A1

Molecular target: COMT (Homo sapiens, UniProt P21964)
Construct: COMT activity was evaluated in cell monolayers by the ability to methylate adrenaline; host or cells: SK-N-SH
Sequence (P21964 1-271): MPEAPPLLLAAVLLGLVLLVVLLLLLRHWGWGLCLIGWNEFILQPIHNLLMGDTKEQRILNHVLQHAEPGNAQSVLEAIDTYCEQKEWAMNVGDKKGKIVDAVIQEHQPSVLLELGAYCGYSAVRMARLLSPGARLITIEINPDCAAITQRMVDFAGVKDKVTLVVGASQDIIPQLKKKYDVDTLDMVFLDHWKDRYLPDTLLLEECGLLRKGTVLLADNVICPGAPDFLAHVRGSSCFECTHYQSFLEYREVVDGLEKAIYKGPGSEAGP
Test: COMT activity in intact SK-N-SH cells (methylation of adrenaline to metanephrine, HPLC with electrochemical detection)
Format: cell-based
Conditions: concentration of test compound 100 nM, means ±SEM of n=4-8
property-label: COMT activity (% of control)

The reported COMT activity (% of control) value, COMT (Homo sapiens, UniProt P21964), for Cl.O=C(CN1CCc2ccccc2C1)c1cc(O)c(O)c([N+](=O)[O-])c1 reads 0.9±0.6 % of control

# COMT activity (% of control) measured on COMT (Homo sapiens, UniProt P21964) for item CC1CCCCN1CCC(=O)c1cc(O)c(O)c([N+](=O)[O-])c1.Cl (centres unmarked) = 4.8±0.4 % of control

Measured COMT activity (% of control) for this entry Cl.O=C(CC(c1ccccc1)N1CCCCC1)c1cc(O)c(O)c([N+](=O)[O-])c1 (centres unmarked) on COMT (Homo sapiens, UniProt P21964): 7.2±1.9 % of control

The value of COMT activity (% of control) recorded for Cl.O=C(CCN1CCC(Cc2ccccc2)CC1)c1cc(O)c(O)c([N+](=O)[O-])c1 when tested on COMT (Homo sapiens, UniProt P21964) reads 0.0±0.0 % of control

Form field COMT activity (% of control) for item Cl.Cl.O=C(CCN1CCN(c2ccccc2Cl)CC1)c1cc(O)c(O)c([N+](=O)[O-])c1 on COMT (Homo sapiens, UniProt P21964): 0.0±0.0 % of control

Measured COMT activity (% of control) for this entry Cl.Cl.O=C(CN1CCN(c2cccc(C(F)(F)F)c2)CC1)c1cc(O)c(O)c([N+](=O)[O-])c1 on COMT (Homo sapiens, UniProt P21964): 7.7±0.6 % of control

Short answer on COMT (Homo sapiens, UniProt P21964) for Cl.N#CC1(c2ccccc2)CCN(CCC(=O)c2cc(O)c(O)c([N+](=O)[O-])c2)CC1 , COMT activity (% of control): 2.9±0.3 % of control

Query CC1CCCCN1CC(=O)c1cc(O)c(O)c([N+](=O)[O-])c1.Cl (centres unmarked) on COMT (Homo sapiens, UniProt P21964); COMT activity (% of control) returned: 12.2±1.7 % of control

====

biological target: COMT (Homo sapiens); construct: COMT activity was evaluated in cell monolayers by the ability to methylate adrenaline; host or cells: SK-N-SH; assay: COMT activity in intact SK-N-SH cells (methylation of adrenaline to metanephrine, HPLC with electrochemical detection); type: cell-based; settings: concentration of test compound 100 nM, means ±SEM of n=4-8
property-label: COMT activity (% of control)

Item Cl.Cl.O=C(CCN1CCN(c2cccc(C(F)(F)F)c2)CC1)c1cc(O)c(O)c([N+](=O)[O-])c1 ; assay system COMT (Homo sapiens); COMT activity (% of control) reported as 4.2±0.2 % of control

// assay COMT (Homo sapiens), entry CC1CN(CC(=O)c2cc(O)c(O)c([N+](=O)[O-])c2)CC(C)O1.Cl (stereo not shown) , COMT activity (% of control) value = 14.8±1.3 % of control

For Cl.O=C(CN1CCCCCC1)c1cc(O)c(O)c([N+](=O)[O-])c1 on COMT (Homo sapiens), measured COMT activity (% of control) was 4.3±0.6 % of control

Item CCN(CC)C(C)C(=O)c1cc(O)c(O)c([N+](=O)[O-])c1.Cl (stereo not shown) was tested on COMT (Homo sapiens); the reported COMT activity (% of control) is 9.0±0.2 % of control

====

tested on: Liver COMT; experiment: Ex vivo COMT activity in mouse liver homogenates after administration of test compound by gastric tube; parameters: species or system NMRI mice; conditions: homogenates of mice liver, 1 h after administration by gastric tube; dose not given; means±S.E.M. of 4-8 experiments
property-label: Liver COMT (% of control) 1h

Lab book: Liver COMT (% of control) 1h of Cl.O=C(CN1CCCCCC1)c1cc(O)c(O)c([N+](=O)[O-])c1 noted as 40.8±6.4 % of control

response.value for CC1CCCCN1CC(=O)c1cc(O)c(O)c([N+](=O)[O-])c1.Cl (centres unmarked) (field: Liver COMT (% of control) 1h) = 57.6±5.8 % of control

Per the records, this compound ( Cl.O=C(CCN1CCCCCC1)c1cc(O)c(O)c([N+](=O)[O-])c1 ) has Liver COMT (% of control) 1h equal to 39.0±2.0 % of control

Field Liver COMT (% of control) 1h (entry O=C(COc1cccc2ccccc12)c1cc(O)c(O)c([N+](=O)[O-])c1 ) reads 13.7±1.9 % of control

get_value(item= Cl.Cl.Cl.Cl.O=C(CCN1CCN(c2ncccn2)CC1)c1cc(O)c(O)c([N+](=O)[O-])c1 , readout=Liver COMT (% of control) 1h) returns 30.0±2.5 % of control

Reported Liver COMT (% of control) 1h of Cl.Cl.O=C(CCN1CCN(c2ccccc2Cl)CC1)c1cc(O)c(O)c([N+](=O)[O-])c1 : 54.2±7.5 % of control

Per the records, this compound ( Cl.O=C(CC(c1ccccc1)N1CCCC1)c1cc(O)c(O)c([N+](=O)[O-])c1 (centres unmarked) ) has Liver COMT (% of control) 1h equal to 12.0±1.8 % of control

Measured Liver COMT (% of control) 1h of Cl.O=C(CN1CCc2ccccc2C1)c1cc(O)c(O)c([N+](=O)[O-])c1 : 55.1±5.0 % of control

====

molecular target: COMT (Homo sapiens); construct: COMT activity was evaluated in cell monolayers by the ability to methylate adrenaline; host or cells: SK-N-SH; experiment: COMT activity in intact SK-N-SH cells (methylation of adrenaline to metanephrine, HPLC with electrochemical detection); type: cell-based; settings: concentration of test compound 100 nM, means ±SEM of n=4-8
Please provide measured COMT activity (% of control) for the entries that follow.

COMT activity (% of control) for COMT (Homo sapiens) with input COc1ccc(C(=O)N2CCN(CCC(=O)c3cc(O)c(O)c([N+](=O)[O-])c3)CC2)cc1.Cl.Cl [Compound 30] equals 1.9±1.3 % of control

The measured COMT activity (% of control) that Cl.O=C(CCN1CCSCC1)c1cc(O)c(O)c([N+](=O)[O-])c1 [Compound 19] showed for COMT (Homo sapiens) is 6.8±2.3 % of control

The molecule CC1CC(C)CN(CC(=O)c2cc(O)c(O)c([N+](=O)[O-])c2)C1.Cl (centres unmarked) [Compound 12] on COMT (Homo sapiens): COMT activity (% of control) was 15.4±1.8 % of control

Response field COMT activity (% of control) (COMT (Homo sapiens)) for item O=C(COc1ccc2ccccc2c1)c1cc(O)c(O)c([N+](=O)[O-])c1 [Compound 10] : 2.0±0.1 % of control

Entry Cl.Cl.Cl.Cl.O=C(CCN1CCN(c2ncccn2)CC1)c1cc(O)c(O)c([N+](=O)[O-])c1 [Compound 23] , COMT (Homo sapiens) data, COMT activity (% of control) value: 4.4±0.9 % of control

Record for Cl.Cl.Cl.O=C(CN1CCN(c2ccccn2)CC1)c1cc(O)c(O)c([N+](=O)[O-])c1 [Compound 14] under target or system COMT (Homo sapiens): COMT activity (% of control) reported as 8.5±0.3 % of control

Param item: Cl.O=C(CC(c1ccccc1)N1CCCC1)c1cc(O)c(O)c([N+](=O)[O-])c1 (centres unmarked) [Compound 4] ; param system: COMT (Homo sapiens); output COMT activity (% of control): 23.8±2.9 % of control

Tested system COMT (Homo sapiens); COMT activity (% of control) recorded for Cl.O=C(CCN1CCCCCC1)c1cc(O)c(O)c([N+](=O)[O-])c1 [Compound 20] was 3.6±0.3 % of control

====

Field: Liver COMT (% of control) 1h. Provide a value for each of the molecules that follow.
tested on: Liver COMT; assay: Ex vivo COMT activity in mouse liver homogenates after administration of test compound by gastric tube; set-up: species or system NMRI mice; settings: homogenates of mice liver, 1 h after administration by gastric tube; dose not given; means±S.E.M. of 4-8 experiments

The molecule CC1CN(CC(=O)c2cc(O)c(O)c([N+](=O)[O-])c2)CC(C)O1.Cl (centres unmarked) on Liver COMT: Liver COMT (% of control) 1h was 38.0±5.0 % of control

Let me check: O=C(COc1ccccc1)c1cc(O)c(O)c([N+](=O)[O-])c1 , system Liver COMT, measured Liver COMT (% of control) 1h is 22.0±3.7 % of control

Form: item O=C(COc1ccc2ccccc2c1)c1cc(O)c(O)c([N+](=O)[O-])c1 ; test system Liver COMT; Liver COMT (% of control) 1h: 17.3±2.7 % of control

Record Cl.O=C(CCN1CCCCCCC1)c1cc(O)c(O)c([N+](=O)[O-])c1 has Liver COMT Liver COMT (% of control) 1h equal to 22.1±3.4 % of control

Reading of Liver COMT (% of control) 1h for Cl.O=C(CC(c1ccccc1)N1CCOCC1)c1cc(O)c(O)c([N+](=O)[O-])c1 (centres unmarked) with Liver COMT: 16.7±1.6 % of control

Tested on Liver COMT: Cl.Cl.O=C(CN1CCN(c2cccc(C(F)(F)F)c2)CC1)c1cc(O)c(O)c([N+](=O)[O-])c1 . Observed Liver COMT (% of control) 1h: 49.7±3.2 % of control

Liver COMT data for CCOC(=O)C1CCN(CCC(=O)c2cc(O)c(O)c([N+](=O)[O-])c2)CC1.Cl ; its Liver COMT (% of control) 1h: 36.8±2.3 % of control

For the molecule Cl.Cl.Cl.O=C(CN1CCN(c2ccccn2)CC1)c1cc(O)c(O)c([N+](=O)[O-])c1 , the measured Liver COMT (% of control) 1h on Liver COMT was 33.6±5.6 % of control
